- Assayed Target: cationic trypsin (Homo sapiens, UniProt P07477)
- Experimental Details: enzyme inhibition
Assay Metric: Ki (pM)
One number for each entry, in pM.

Look up Ki for this binder: APPI Kunitz domain (protein) VREVCSEQAETGPCRAMISRWYFDVTEGKCAPFFYGGCGGNRNNFDTEEYCMAVCGSA
6.27
